Source listed as patent US20130123494A1.

# RUN_DESCRIPTION: Test of storage stability in solution
# Type: physicochemical
# CONDITION_NOTES: 13 mg in 1 mL TFP, brown bottle, 25° C., 3 days; 1250-fold diluted for measurement
OBSERVED_PROPERTY: I^c/I^c0 (absorbance ratio at absorption maximum after/before storage stability test)
// keep it numeric: no unit symbol after the value

Q: May I ask what I^c/I^c0 (absorbance ratio at absorption maximum after/before storage stability test) has been recorded for CCn1c([O-])c(/C=N/[N-]c2ncccn2)c(C)c(C#N)c1=O.CCn1c([O-])c(/C=N/[N-]c2ncccn2)c(C)c(C#N)c1=O.CCn1c([O-])c(/C=N/[N-]c2ncccn2)c(C)c(C#N)c1=O.CCn1c([O-])c(/C=N/[N-]c2ncccn2)c(C)c(C#N)c1=O.Oc1ccc(-c2ccccc2)cc1-[n+]1ccc(-c2cc[n+](-c3cc(-c4ccccc4)ccc3O)cc2)cc1.[Co+3].[Co+3] ?
Ans: 1.00

Q: Query: I^c/I^c0 (absorbance ratio at absorption maximum after/before storage stability test); subject: CCn1c([O-])c(/C=N/[N-]C(=O)c2ccc(C(F)(F)F)cc2)c(C)c(C#N)c1=O.CCn1c([O-])c(/C=N/[N-]C(=O)c2ccc(C(F)(F)F)cc2)c(C)c(C#N)c1=O.CCn1c([O-])c(/C=N/[N-]C(=O)c2ccc(C(F)(F)F)cc2)c(C)c(C#N)c1=O.CCn1c([O-])c(/C=N/[N-]C(=O)c2ccc(C(F)(F)F)cc2)c(C)c(C#N)c1=O.[Co+3].[Co+3].c1cc[n+]2c(c1)-c1cccc[n+]1CCC2
Ans: 1.00

Q: Quick one: I^c/I^c0 (absorbance ratio at absorption maximum after/before storage stability test) of Cc1c(/C=N/[N-]c2nnnn2-c2ccccc2)c([O-])n(CC(C)C)c(=O)c1C#N.Cc1c(/C=N/[N-]c2nnnn2-c2ccccc2)c([O-])n(CC(C)C)c(=O)c1C#N.Cc1c(/C=N/[N-]c2nnnn2-c2ccccc2)c([O-])n(CC(C)C)c(=O)c1C#N.Cc1c(/C=N/[N-]c2nnnn2-c2ccccc2)c([O-])n(CC(C)C)c(=O)c1C#N.[Co+3].[Co+3].c1ccc(-[n+]2ccc(-c3cc[n+](-c4ccccc4)cc3)cc2)cc1 ?
Ans: 0.99

Q: Which measured I^c/I^c0 (absorbance ratio at absorption maximum after/before storage stability test) value corresponds to Cc1c(/C=N/[N-]c2nnnn2-c2ccccc2)c([O-])n(Cc2ccccc2)c(=O)c1C#N.Cc1c(/C=N/[N-]c2nnnn2-c2ccccc2)c([O-])n(Cc2ccccc2)c(=O)c1C#N.Cc1c(/C=N/[N-]c2nnnn2-c2ccccc2)c([O-])n(Cc2ccccc2)c(=O)c1C#N.Cc1c(/C=N/[N-]c2nnnn2-c2ccccc2)c([O-])n(Cc2ccccc2)c(=O)c1C#N.[Co+3].[Co+3].c1cc[n+]2c(c1)-c1cccc[n+]1CCC2 ?
Ans: 0.99

Q: Query: I^c/I^c0 (absorbance ratio at absorption maximum after/before storage stability test); subject: Cc1c(/C=N/[N-]c2nc3ccccc3o2)c([O-])n(Cc2ccco2)c(=O)c1C#N.Cc1c(/C=N/[N-]c2nc3ccccc3o2)c([O-])n(Cc2ccco2)c(=O)c1C#N.Cc1c(/C=N/[N-]c2nc3ccccc3o2)c([O-])n(Cc2ccco2)c(=O)c1C#N.Cc1c(/C=N/[N-]c2nc3ccccc3o2)c([O-])n(Cc2ccco2)c(=O)c1C#N.Fc1cccc(-[n+]2ccc(-c3cc[n+](-c4cccc(F)c4)cc3)cc2)c1.[Co+3].[Co+3]
Ans: 1.02
